# Tgt: Integrin alpha-V/beta-3 (Homo sapiens, UniProt P05106+P06756)
# Sequence (P05106 27-788 limits assumed): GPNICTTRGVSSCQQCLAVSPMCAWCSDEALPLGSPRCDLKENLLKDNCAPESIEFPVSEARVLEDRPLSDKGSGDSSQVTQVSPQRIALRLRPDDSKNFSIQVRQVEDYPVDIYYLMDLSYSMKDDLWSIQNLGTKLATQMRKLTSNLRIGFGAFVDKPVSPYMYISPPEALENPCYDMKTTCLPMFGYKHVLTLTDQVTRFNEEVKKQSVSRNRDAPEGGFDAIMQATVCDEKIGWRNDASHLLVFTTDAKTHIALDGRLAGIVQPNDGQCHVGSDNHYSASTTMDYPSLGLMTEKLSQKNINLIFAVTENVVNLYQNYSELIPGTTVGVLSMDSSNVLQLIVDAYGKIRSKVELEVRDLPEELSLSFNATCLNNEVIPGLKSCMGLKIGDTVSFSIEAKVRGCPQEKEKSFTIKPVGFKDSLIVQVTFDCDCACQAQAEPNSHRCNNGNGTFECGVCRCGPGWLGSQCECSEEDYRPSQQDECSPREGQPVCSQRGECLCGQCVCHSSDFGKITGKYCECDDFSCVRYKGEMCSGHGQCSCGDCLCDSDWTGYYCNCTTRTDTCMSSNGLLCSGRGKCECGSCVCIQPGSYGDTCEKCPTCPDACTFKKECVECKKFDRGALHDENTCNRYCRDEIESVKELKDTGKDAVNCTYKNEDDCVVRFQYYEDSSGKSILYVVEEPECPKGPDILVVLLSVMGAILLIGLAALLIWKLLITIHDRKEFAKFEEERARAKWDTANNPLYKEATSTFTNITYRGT
# Sequence (P06756 31-889 limits assumed): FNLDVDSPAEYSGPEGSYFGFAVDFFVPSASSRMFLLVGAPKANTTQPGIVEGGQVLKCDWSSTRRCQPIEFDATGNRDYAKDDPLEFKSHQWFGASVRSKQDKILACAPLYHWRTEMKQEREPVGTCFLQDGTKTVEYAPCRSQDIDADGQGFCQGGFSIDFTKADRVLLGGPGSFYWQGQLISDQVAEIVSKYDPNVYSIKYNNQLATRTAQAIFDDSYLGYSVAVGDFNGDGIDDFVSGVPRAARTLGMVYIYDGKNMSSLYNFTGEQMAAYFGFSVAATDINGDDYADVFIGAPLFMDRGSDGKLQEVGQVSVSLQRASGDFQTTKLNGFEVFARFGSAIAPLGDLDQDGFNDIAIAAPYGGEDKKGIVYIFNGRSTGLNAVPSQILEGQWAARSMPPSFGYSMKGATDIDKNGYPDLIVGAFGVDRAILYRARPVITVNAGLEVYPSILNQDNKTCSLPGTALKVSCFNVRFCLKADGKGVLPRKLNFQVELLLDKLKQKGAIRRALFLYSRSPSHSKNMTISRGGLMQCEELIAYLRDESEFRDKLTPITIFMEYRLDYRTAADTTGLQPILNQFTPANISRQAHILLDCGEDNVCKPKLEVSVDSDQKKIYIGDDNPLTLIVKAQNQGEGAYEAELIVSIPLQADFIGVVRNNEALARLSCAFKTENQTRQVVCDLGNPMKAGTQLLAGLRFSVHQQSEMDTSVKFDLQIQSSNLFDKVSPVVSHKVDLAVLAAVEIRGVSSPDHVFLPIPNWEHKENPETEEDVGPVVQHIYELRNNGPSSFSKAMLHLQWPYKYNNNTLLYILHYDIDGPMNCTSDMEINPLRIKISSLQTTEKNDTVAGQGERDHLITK
# Sequence (P06756 891-1048 limits assumed): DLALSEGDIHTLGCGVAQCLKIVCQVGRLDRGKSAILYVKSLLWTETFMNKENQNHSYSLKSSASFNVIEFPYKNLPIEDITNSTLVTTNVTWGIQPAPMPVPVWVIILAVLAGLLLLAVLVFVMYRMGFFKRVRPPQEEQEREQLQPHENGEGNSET
# Assay name: Inhibition of human umbilical vein endothelial cell adhesion to vitronectin
# Format: functional, cell-based
pIC50: −log10 of the molar value. Peptide text beside a SMILES is read from it.
Here the recorded pIC50 is given for each entry.
Readout kind: pIC50

O=C(N[C@@H](Cc1ccc(OCCCCC2CCNCC2)cc1)C(=O)O)OCc1ccccc1	4.25
NC(N)=NCCC[C@H](N)C(=O)NCC(=O)N[C@@H](CC(=O)O)C(=O)N[C@@H](Cc1c[nH]c2ccccc12)C(=O)O (H-RGDW-OH)	4.85
NCCCCCCCOc1ccc(C[C@H](NC(=O)OCc2ccccc2)C(=O)O)cc1	3.83
CCCCS(=O)(=O)N[C@@H](Cc1ccc(OCCCCC2CCNCC2)cc1)C(=O)O	4.21
CCCCS(=O)(=O)N[C@@H](Cc1ccc(OCCCCCCN)cc1)C(=O)O	3.82

Recorded values, source ChEMBL document CHEMBL1127608.
